- System under test: Mitogen-activated protein kinase kinase kinase kinase 4 (Homo sapiens, UniProt O95819)
- Sequence (O95819 whole entry): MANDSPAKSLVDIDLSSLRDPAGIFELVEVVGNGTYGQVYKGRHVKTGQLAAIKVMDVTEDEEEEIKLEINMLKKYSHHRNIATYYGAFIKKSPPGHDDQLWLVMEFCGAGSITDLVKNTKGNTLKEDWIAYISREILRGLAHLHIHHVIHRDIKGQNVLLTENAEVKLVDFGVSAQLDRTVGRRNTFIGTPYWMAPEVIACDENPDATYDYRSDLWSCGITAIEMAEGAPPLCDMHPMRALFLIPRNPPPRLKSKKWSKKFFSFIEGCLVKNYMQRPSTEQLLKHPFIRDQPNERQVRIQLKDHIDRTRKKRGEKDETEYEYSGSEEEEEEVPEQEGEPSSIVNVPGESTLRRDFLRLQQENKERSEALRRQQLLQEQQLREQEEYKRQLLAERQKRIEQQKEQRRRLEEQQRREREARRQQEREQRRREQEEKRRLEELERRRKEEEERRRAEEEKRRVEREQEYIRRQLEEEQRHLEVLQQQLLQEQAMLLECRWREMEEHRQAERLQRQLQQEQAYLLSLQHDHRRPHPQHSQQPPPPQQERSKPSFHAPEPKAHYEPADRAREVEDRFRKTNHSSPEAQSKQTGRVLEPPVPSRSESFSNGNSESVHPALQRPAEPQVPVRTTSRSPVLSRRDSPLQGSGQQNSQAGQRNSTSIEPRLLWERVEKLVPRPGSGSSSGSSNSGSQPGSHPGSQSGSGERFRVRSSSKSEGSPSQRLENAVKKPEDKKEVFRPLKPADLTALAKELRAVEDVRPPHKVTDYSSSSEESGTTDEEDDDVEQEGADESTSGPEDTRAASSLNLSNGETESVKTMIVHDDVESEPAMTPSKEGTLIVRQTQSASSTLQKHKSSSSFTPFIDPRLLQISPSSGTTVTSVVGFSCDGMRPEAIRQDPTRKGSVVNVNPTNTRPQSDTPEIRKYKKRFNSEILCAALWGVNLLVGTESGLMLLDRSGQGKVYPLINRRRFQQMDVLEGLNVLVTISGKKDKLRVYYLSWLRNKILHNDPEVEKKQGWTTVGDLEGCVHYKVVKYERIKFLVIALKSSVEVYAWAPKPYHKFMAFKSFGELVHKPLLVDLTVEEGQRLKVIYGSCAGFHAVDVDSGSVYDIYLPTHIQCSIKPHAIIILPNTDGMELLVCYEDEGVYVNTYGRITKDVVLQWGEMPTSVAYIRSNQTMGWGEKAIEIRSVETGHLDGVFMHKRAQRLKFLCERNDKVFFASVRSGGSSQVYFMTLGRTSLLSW
- Assay name: Inhibition of ZC1/HGK (unknown origin) Lys1 labeling site by KiNativ Profiling analysis
Property measured: IC50 (µM)

>>> experimental_value("CCN1CCN(Cc2ccc(NC(=O)c3ccc(C)c(/C=C/c4cnc5[nH]ccc5c4OC)c3)cc2C(F)(F)F)CC1")
9.75
>>> experimental_value("CCN1CCN(Cc2ccc(NC(=O)c3ccc(C)c(Oc4ccnc5[nH]ccc45)c3)cc2C(F)(F)F)CC1")
3.25

* * *

- System under test: Mitogen-activated protein kinase kinase kinase 7 (Homo sapiens) (UniProt O43318)
- Sequence (O43318 whole entry): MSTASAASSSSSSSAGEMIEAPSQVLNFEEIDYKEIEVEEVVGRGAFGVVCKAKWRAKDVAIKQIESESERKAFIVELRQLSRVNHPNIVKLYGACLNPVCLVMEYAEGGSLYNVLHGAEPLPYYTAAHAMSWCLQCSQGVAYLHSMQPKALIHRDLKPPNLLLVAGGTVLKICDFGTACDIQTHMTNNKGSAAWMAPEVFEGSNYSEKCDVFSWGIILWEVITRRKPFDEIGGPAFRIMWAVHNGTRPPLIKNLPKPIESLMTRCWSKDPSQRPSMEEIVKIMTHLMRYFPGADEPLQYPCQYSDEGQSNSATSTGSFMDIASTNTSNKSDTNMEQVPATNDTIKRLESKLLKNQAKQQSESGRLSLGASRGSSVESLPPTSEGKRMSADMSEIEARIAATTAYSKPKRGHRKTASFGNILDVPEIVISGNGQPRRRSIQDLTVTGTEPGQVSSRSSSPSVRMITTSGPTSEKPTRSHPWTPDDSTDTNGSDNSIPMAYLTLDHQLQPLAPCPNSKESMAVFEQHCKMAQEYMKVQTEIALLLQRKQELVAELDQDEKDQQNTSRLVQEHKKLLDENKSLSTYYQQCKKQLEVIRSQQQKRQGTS
- Assay name: Inhibition of TAK1 Lys2 labeling site in human A-375 cells at 0.5 uM by KiNativ Profiling analysis relative to control
- Type: cell-based
# reported inhibition; entries follow
Property measured: inhibition (%)

>>> experimental_value("Cc1cn(-c2cc(NC(=O)c3ccc(C)c(Oc4ccnc5[nH]ccc45)c3)cc(C(F)(F)F)c2)cn1")
-1.5
>>> experimental_value("CCN1CCN(Cc2ccc(NC(=O)c3ccc(C)c(Oc4ncnc5[nH]c(C)cc45)c3)cc2C(F)(F)F)CC1")
57.7
>>> experimental_value("Cc1ccc(C(=O)Nc2cc(N3CCN(C)CC3)cc(C(F)(F)F)c2)cc1Oc1ncnc2[nH]ccc12")
29.3
>>> experimental_value("CCN1CCN(Cc2ccc(NC(=O)c3ccc(C)c(CCc4cnc5[nH]ccc5c4OC)c3)cc2C(F)(F)F)CC1")
74.3
>>> experimental_value("CCN1CCN(Cc2ccc(NC(=O)c3ccc(C)c(Oc4ccnc(NC)n4)c3)cc2C(F)(F)F)CC1")
77.7
>>> experimental_value("CCN1CCN(Cc2ccc(NC(=O)c3ccc(C)c(Oc4ncnc5[nH]ncc45)c3)cc2C(F)(F)F)CC1")
86.5
